The values you see were collected from patent US20240158515A1.

Examples of binders with documented 90 nM hFGFR3b.mmH Bind (RU) follow.
- TARGET_UNDER_TEST: T1, human FGFR3b expressed with a C-terminal myc-myc-hexahistidine tag (hFGFR3b.mmH) (human)
- T1 construct: also called REGN3152; monomeric human FGFR3b
- T1 chain: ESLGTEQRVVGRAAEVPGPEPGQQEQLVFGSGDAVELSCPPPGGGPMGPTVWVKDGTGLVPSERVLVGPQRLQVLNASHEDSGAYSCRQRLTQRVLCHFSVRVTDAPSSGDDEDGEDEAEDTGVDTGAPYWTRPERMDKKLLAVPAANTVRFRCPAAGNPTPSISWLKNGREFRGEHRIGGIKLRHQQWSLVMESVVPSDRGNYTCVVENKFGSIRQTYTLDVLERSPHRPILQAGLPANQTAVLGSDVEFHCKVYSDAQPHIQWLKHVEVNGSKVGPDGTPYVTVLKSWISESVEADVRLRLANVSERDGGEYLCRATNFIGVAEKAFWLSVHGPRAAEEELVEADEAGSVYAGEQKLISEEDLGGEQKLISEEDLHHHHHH
- ASSAY_PROCEDURE: SPR Biacore, mAb captured on anti-hFc, 25C
- Description: The CM5 Biacore sensor surface was derivatized by amine coupling with a monoclonal mouse anti-human Fc monoclonal antibody (REGN2567). […] Antibody-reagent association was monitored for 5 minutes while dissociation in HBS-EP running buffer was monitored for 10 minutes. At the end of each cycle, the anti-FGFR3 antibody capture surface was regenerated using a 10 sec injection of 20 mM phosphoric acid. All binding kinetics experiments were performed at 25° C. […]
Please respond with the number in RU and leave the unit unwritten.

Past entries and their recorded results:
BINDER: REGN6331 (antibody, human IgG1, kappa, V domains shown, hIgG1 comparator; also called COMP6331; anti-FGFR3-hIgG1 comparator) VH: EVQLVESGGGLVQPGGSLRLSCAASGFTFTSTGISWVRQAPGKGLEWVGRIYPTSGSTNYADSVKGRFTISADTSKNTAYLQMNSLRAEDTAVYYCARTYGIYDLYVDYTEYVMDYWGQGTLVTVSS VL: DIQMTQSPSSLSASVGDRVTITCRASQDVDTSLAWYKQKPGKAPKLLIYSASFLYSGVPSRFSGSGSGTDFTLTISSLQPEDFATYYCQQSTGHPQTFGQGTKVEIKR
90 nM hFGFR3b.mmH Bind (RU): 58.4

BINDER: H4H30071P (antibody, human IgG4 S228P, kappa, V domains shown, HCVR 42, LCVR 50) VH: QVQLQQSGPGLVKPSQTLSLTCAISGDSVSRNSAAWNWIRQSPSSGLEWLGRTYYRSKWFYDYAISVKSRITVNPDTSKNQFSLHLNSVTPEDTAVYYCARGYGGYEDYFDYWGQGTLVTVSS VL: DIQMTQSPSSVSASVGDRVTITCRASQGISSWLAWYQQKPGKAPKLLIYGASSLQSGVPSRFSGSGSGTDFTLTISSLQPEDFATYFCQQGSSFPYTFGQGTKLEIKR
90 nM hFGFR3b.mmH Bind (RU): 253

Field: next binder
### Prompt GET /values?readout=90 nM hFGFR3b.mmH Bind (RU)&item= H4H30076P (antibody, human IgG4 S228P, kappa, V domains shown) VH: EVQLVESGGGLVQPGGSLRLSCAASGFTVSSNYMSWVRQAPGKGLEWVSIIYSGGHTYYSDSVKGRFTISRHNSKNTLYLQMNSLRGGDTAVYYCARGYTSGWYGFDFWGQGTLVTVSS VL: DIQMTQSPSSVSASVGDRVTITCRASQGISTWLAWYQQKPGKAPKLLIYAASSLQSGVPSRFSGTGSGTDFTLTISSLQPEDFATYYCQQTNSFPWTFGQGTKVEIKR
### Response 198
